Measured IC50, listed per entry for reference.
# test_target: uPAR-expressing HEC-265 human endometrial adenocarcinoma cells (Homo sapiens, UniProt Q03405)
# Sequence (Q03405 23-335): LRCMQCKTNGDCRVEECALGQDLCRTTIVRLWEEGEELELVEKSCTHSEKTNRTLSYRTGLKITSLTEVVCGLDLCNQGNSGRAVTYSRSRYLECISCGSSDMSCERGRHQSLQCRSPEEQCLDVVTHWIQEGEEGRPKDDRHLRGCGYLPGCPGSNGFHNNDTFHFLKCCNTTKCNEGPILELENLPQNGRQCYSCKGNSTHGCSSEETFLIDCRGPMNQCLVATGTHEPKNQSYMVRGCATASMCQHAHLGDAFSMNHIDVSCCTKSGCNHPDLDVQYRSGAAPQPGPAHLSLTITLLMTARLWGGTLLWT
Where a SMILES comes first, the peptide text is derived from it. Bridges are numbered along the chain shown (N, C = ends). [ ]: non-standard residue; d: D form. The star is where a group is joined. Hyp = O=C(O)[C@@H]1C[C@@H](O)CN1; Pentanoyl(4-Me) = CC(C)CCC(=O)*; Cit = NC(=O)NCCC[C@H](N)C(=O)O; Aze = O=C(O)[C@@H]1CCN1; Pentanoyl = CCCCC(=O)*

Request: Dear colleague, please send me the reported IC50 for CC[C@H](C)[C@@H]1NC(=O)[C@@H]2CCN2C(=O)[C@@H]2CCCN2C(=O)[C@H](Cc2ccccc2)NC(=O)[C@H](Cc2ccc(O)cc2)NC(=O)[C@H](CCC(N)=O)NC(=O)[C@H](CCCNC(N)=O)NC(=O)[C@@H](NC(=O)CCC(C)C)CSSC[C@@H](C(N)=O)NC(=O)[C@H](CC(C)C)NC1=O [UPAR-446] ({Pentanoyl(4-Me)}-C[Cit]QYFP[Aze]ILC-NH2; disulfide 1-10) when you can.
Result: ≤ 0.01 µM

Request: Dear colleague, please send me the reported IC50 for CCCCC(=O)N[C@H]1CSSC[C@@H](C(N)=O)NC(=O)[C@H](Cc2ccccc2)NC(=O)[C@H]([C@@H](C)CC)NC(=O)[C@@H]2C[C@@H](O)CN2C(=O)[C@@H]2CCCN2C(=O)[C@H](Cc2ccccc2)NC(=O)[C@H](Cc2ccc(O)cc2)NC(=O)[C@H](CCC(N)=O)NC(=O)[C@H](CCCNC(=N)N)NC1=O [UPAR-171] (Pentanoyl-CRQYFP[Hyp]IFC-NH2; disulfide 1-10) when you can.
Result: 0.0126 to 0.0316 µM

====

Measured IC50, listed per entry for reference.
# test_target: uPAR-expressing HEC-265 human endometrial adenocarcinoma cells (Homo sapiens, UniProt Q03405)
Where a SMILES comes first, the peptide text is derived from it. Bridges are numbered along the chain shown (N, C = ends). [ ]: non-standard residue; d: D form. The star is where a group is joined. X4 = C[N+](C)(CCCC[C@H](NC(=O)CN1CCN(CC(=O)O)CCN(CC(=O)O)CCN(CC(=O)O)CC1)C(=O)*)CCCS(=O)(=O)[O-]; DOTA = O=C(O)CN1CCN(CC(=O)O)CCN(CC(=O)*)CCN(CC(=O)O)CC1; Pro(cis-4-F) = O=C(O)[C@@H]1C[C@H](F)CN1; Hyp = O=C(O)[C@@H]1C[C@@H](O)CN1; hArg = N=C(N)NCCCC[C@H](N)C(=O)O; NMeQ = CN[C@@H](CCC(N)=O)C(=O)O; Pentanoyl(4-Me) = CC(C)CCC(=O)*; Cit = NC(=O)NCCC[C@H](N)C(=O)O; Butoxycarbonyl = CCCCOC(=O)*; Nva = CCC[C@H](N)C(=O)O

Recorded results for 4 compounds are shown here.
{"compound": "CC[C@H](C)[C@@H]1NC(=O)[C@@H](C)NC(=O)[C@@H]2CCCN2C(=O)[C@H](Cc2ccccc2)NC(=O)[C@H](Cc2ccc(O)cc2)NC(=O)[C@H](CCC(N)=O)N(C)C(=O)[C@H](CCCNC(N)=O)NC(=O)[C@@H](NC(=O)CCC(C)C)CSSC[C@@H](C(N)=O)NC(=O)[C@H](CC(C)C)NC1=O [UPAR-407] ({Pentanoyl(4-Me)}-C[Cit][NMeQ]YFP[dA]ILC-NH2; disulfide 1-10)", "recorded_measurement": "≥ 126 nM"}
{"compound": "CCCCOC(=O)N[C@H]1CSSC[C@@H](C(N)=O)NC(=O)[C@H](CCC)NC(=O)[C@H]([C@@H](C)CC)NC(=O)[C@@H]2C[C@@H](O)CN2C(=O)[C@@H]2C[C@H](F)CN2C(=O)[C@H](Cc2ccccc2)NC(=O)[C@H](Cc2ccc(O)cc2)NC(=O)[C@H](CCCCNC(=O)[C@H](CCCC[N+](C)(C)CCCS(=O)(=O)[O-])NC(=O)CN2CCN(CC(=O)O)CCN(CC(=O)O)CCN(CC(=O)O)CC2)NC(=O)[C@H]([C@@H](C)O)NC1=O [UPAR-422] (Butoxycarbonyl-CTK(X4)YF[Pro(cis-4-F)][Hyp]I[Nva]C-NH2; disulfide 1-10)", "recorded_measurement": "≤ 10 nM"}
{"compound": "CC[C@H](C)[C@@H]1NC(=O)[C@@H](C)NC(=O)[C@@H]2CCCN2C(=O)[C@H](Cc2ccccc2)NC(=O)[C@H](Cc2ccc(O)cc2)NC(=O)[C@H](CCC(N)=O)NC(=O)[C@H](CCCNC(N)=O)NC(=O)[C@@H](NC(=O)[C@H](CC(C)C)NC(=O)CN2CCN(CC(=O)O)CCN(CC(=O)O)CCN(CC(=O)O)CC2)CSSC[C@@H](C(N)=O)NC(=O)[C@H](CC(C)C)NC1=O [UPAR-441] ({DOTA}-LC[Cit]QYFP[dA]ILC-NH2; disulfide 2-11)", "recorded_measurement": "39.8 to 100 nM"}
{"compound": "CC[C@H](C)[C@@H]1NC(=O)[C@H](C)NC(=O)[C@@H]2CCCN2C(=O)[C@H](Cc2ccccc2)NC(=O)[C@H](Cc2ccc(O)cc2)NC(=O)[C@H](CCSC)NC(=O)[C@H](CCCNC(=N)N)NC(=O)[C@@H](NC(=O)[C@H](CC(C)C)NC(=O)[C@H](CC(=O)O)NC(=O)[C@@H](N)CCSC)CSSC[C@@H](C(N)=O)NC(=O)[C@H](CC(C)C)NC1=O [UPAR-312] (H-MDLCRMYFPAILC-NH2; disulfide 4-13)", "recorded_measurement": "≤ 10 nM"}

Now look at this entry.
Request: Dear colleague, please send me the reported IC50 for CC[C@H](C)[C@@H]1NC(=O)[C@@H]2C[C@@H](O)CN2C(=O)[C@@H]2CCCN2C(=O)[C@H](Cc2ccccc2)NC(=O)[C@H](Cc2ccc(O)cc2)NC(=O)[C@H](CCC(N)=O)NC(=O)[C@H](CCCCNC(=N)N)NC(=O)[C@@H](NC(=O)CCC(C)C)CSSC[C@@H](C(N)=O)NC(=O)[C@H](CC(C)C)NC1=O [UPAR-167] ({Pentanoyl(4-Me)}-C[hArg]QYFP[Hyp]ILC-NH2; disulfide 1-10) when you can.
Result: ≤ 10 nM

Data origin: patent EP4610269A1
